Reference source for all entries: ChEMBL document CHEMBL3045537

- System: Mus musculus
- ASSAY: Analgesic activity in Mus musculus (mouse) assessed as protection against acetic acid-induced writhing at 10 mg/kg, po administered 30 min prior challenge measured for 20 min
- Assay type: functional
Outcome: True for Activity of at least 30%; False for anything lower.

O=C(NN1C(=O)/C(=C/c2ccccc2)SC1c1ccc(Cl)cc1)c1ccc(-c2ccccc2)cc1 (configuration not stated) = False

// query Is reported Activity greater than or equal to 30% here: O=C(NN1C(=O)/C(=C/c2ccccc2)SC1c1cccc([N+](=O)[O-])c1)c1ccc(-c2ccccc2)cc1 (configuration not stated)
// result True

// query Is reported Activity greater than or equal to 30% here: COc1ccc(C2S/C(=C\c3cccc(Br)c3)C(=O)N2NC(=O)c2ccc(-c3ccccc3)cc2)cc1 (configuration not stated)
// result True

// query Is reported Activity greater than or equal to 30% here: O=C(NN1C(=O)/C(=C/c2cccc(Br)c2)SC1c1cccc([N+](=O)[O-])c1)c1ccc(-c2ccccc2)cc1 (configuration not stated)
// result True

// query Is reported Activity greater than or equal to 30% here: COc1ccc(C2S/C(=C\c3cccc([N+](=O)[O-])c3)C(=O)N2NC(=O)c2ccc(-c3ccccc3)cc2)cc1 (configuration not stated)
// result True

// query Is reported Activity greater than or equal to 30% here: O=C(NN1C(=O)/C(=C/c2cccc(Br)c2)SC1c1ccc(Cl)cc1)c1ccc(-c2ccccc2)cc1 (configuration not stated)
// result False

---

- System: Rattus norvegicus
- ASSAY: Anti-inflammatory activity inRattus norvegicus albino (rat) assessed as reduction of carrageenan-induced paw edema at 10 mg/kg, po administered 1 hr prior challenge measured after 4 hr post challenge by plethismometer
- Type: functional
- Design: scale not given: the % may be the effect or the level left
Outcome: 1.0 for Activity of at least 60%; 0.0 for anything lower.

COc1ccc(C2S/C(=C\c3ccc(Cl)cc3)C(=O)N2NC(=O)c2ccc(-c3ccccc3)cc2)cc1 (stereo not drawn) = 1.0
O=C(NN1C(=O)/C(=C/c2ccccc2)SC1c1cccc([N+](=O)[O-])c1)c1ccc(-c2ccccc2)cc1 (stereo not drawn) = 0.0
O=C(NN1C(=O)/C(=C/c2cccc(Br)c2)SC1c1ccc(Cl)cc1)c1ccc(-c2ccccc2)cc1 (stereo not drawn) = 0.0
O=C(NN1C(=O)/C(=C/c2ccc(Cl)cc2)SC1c1ccc(F)cc1)c1ccc(-c2ccccc2)cc1 (stereo not drawn) = 0.0
O=C(NN1C(=O)/C(=C/c2ccccc2)SC1c1ccc(Cl)cc1)c1ccc(-c2ccccc2)cc1 (stereo not drawn) = 0.0

// query Is reported Activity greater than or equal to 60% here: COc1ccc(/C=C2\SC(c3ccc(Cl)cc3)N(NC(=O)c3ccc(-c4ccccc4)cc3)C2=O)cc1 (stereo not drawn)
// result 0.0

// query Is reported Activity greater than or equal to 60% here: O=C(NN1C(=O)/C(=C/c2ccc(Cl)cc2)SC1c1ccc(Cl)cc1)c1ccc(-c2ccccc2)cc1 (stereo not drawn)
// result 0.0

// query Is reported Activity greater than or equal to 60% here: COc1ccc(/C=C2\SC(c3ccc(OC)cc3)N(NC(=O)c3ccc(-c4ccccc4)cc3)C2=O)cc1 (stereo not drawn)
// result 1.0

---

- System: Rattus norvegicus
- ASSAY: Anti-inflammatory activity inRattus norvegicus albino (rat) assessed as reduction of carrageenan-induced paw edema at 10 mg/kg, po administered 1 hr prior challenge measured after 4 hr post challenge by plethismometer
- Assay type: functional
- Set-up: scale not given: the % may be the effect or the level left
MEASURED PARAMETER: Activity (%)
Hi! Could you send only the number? It should be in %, unit omitted.

O=C(NN1C(=O)/C(=C/c2ccc(Cl)cc2)SC1c1cccc([N+](=O)[O-])c1)c1ccc(-c2ccccc2)cc1 (stereo not drawn) = 49.23

compound O=C([O-])Cc1ccccc1Nc1c(Cl)cccc1Cl.[Na+] [DICLOFENAC SODIUM] , Activity observed: 79.26

compound O=C(NN1C(=O)/C(=C/c2cccc([N+](=O)[O-])c2)SC1c1ccc(Cl)cc1)c1ccc(-c2ccccc2)cc1 (stereo not drawn) , Activity observed: 56.35

---

- Tested on: Rattus norvegicus
- ASSAY: Anti-inflammatory activity inRattus norvegicus albino (rat) assessed as reduction of carrageenan-induced paw edema at 10 mg/kg, po administered 1 hr prior challenge measured after 4 hr post challenge by plethismometer
- Type: functional
- Parameters: scale not given: the % may be the effect or the level left
Activity reference
Hi! Could you send only the number? It should be in %, unit omitted.

COc1ccc(C2S/C(=C\c3cccc([N+](=O)[O-])c3)C(=O)N2NC(=O)c2ccc(-c3ccccc3)cc2)cc1 (stereo not drawn) = 71.21

compound O=C(NN1C(=O)/C(=C/c2cccc([N+](=O)[O-])c2)SC1c1cccc([N+](=O)[O-])c1)c1ccc(-c2ccccc2)cc1 (stereo not drawn) , Activity observed: 51.37

---

Activity reference
- System: Mus musculus
- ASSAY: Analgesic activity in Mus musculus (mouse) assessed as protection against acetic acid-induced writhing at 10 mg/kg, po administered 30 min prior challenge measured for 20 min
- Format: functional
Hi! Could you send only the number? It should be in %, unit omitted.

Observe how each entry below is paired with its result.
COc1ccc(/C=C2\SC(c3cccc([N+](=O)[O-])c3)N(NC(=O)c3ccc(-c4ccccc4)cc3)C2=O)cc1 (centres undefined) = 37.93
COc1ccc(C2S/C(=C\c3ccccc3)C(=O)N2NC(=O)c2ccc(-c3ccccc3)cc2)cc1 (centres undefined) = 38.35
O=C(NN1C(=O)/C(=C/c2cccc([N+](=O)[O-])c2)SC1c1cccc([N+](=O)[O-])c1)c1ccc(-c2ccccc2)cc1 (centres undefined) = 43.35

Query O=C(NN1C(=O)/C(=C/c2cccc([N+](=O)[O-])c2)SC1c1ccc(Cl)cc1)c1ccc(-c2ccccc2)cc1 (centres undefined) on Mus musculus; Activity returned: 27.5

---

- System: Rattus norvegicus
- ASSAY: Anti-inflammatory activity inRattus norvegicus albino (rat) assessed as reduction of carrageenan-induced paw edema at 10 mg/kg, po administered 1 hr prior challenge measured after 4 hr post challenge by plethismometer
- Assay type: functional
- Set-up: scale not given: the % may be the effect or the level left
Activity reference
Hi! Could you send only the number? It should be in %, unit omitted.

O=C(NN1C(=O)/C(=C/c2cccc(Br)c2)SC1c1cccc([N+](=O)[O-])c1)c1ccc(-c2ccccc2)cc1 (stereo unspecified) = 50.78
COc1ccc(C2S/C(=C\c3cccc(Br)c3)C(=O)N2NC(=O)c2ccc(-c3ccccc3)cc2)cc1 (stereo unspecified) = 69.05
O=C(NN1C(=O)/C(=C/c2cccc(Br)c2)SC1c1ccc(F)cc1)c1ccc(-c2ccccc2)cc1 (stereo unspecified) = 52.08
COc1ccc(/C=C2\SC(c3ccc(F)cc3)N(NC(=O)c3ccc(-c4ccccc4)cc3)C2=O)cc1 (stereo unspecified) = 53.62
COc1ccc(/C=C2\SC(c3cccc([N+](=O)[O-])c3)N(NC(=O)c3ccc(-c4ccccc4)cc3)C2=O)cc1 (stereo unspecified) = 48.92

Now look at this one.
molecule COc1ccc(C2S/C(=C\c3ccccc3)C(=O)N2NC(=O)c2ccc(-c3ccccc3)cc2)cc1 (stereo unspecified) , Activity observed: 68.74
